measurementDescription: Oral bioavailability in CD-1 mouse at 15 mg/kg measured up to 24 hrs by LC-MS/MS analysis
Format: ADME, organism-based
experimentalContext: CD-1, mouse, in vivo
quantityMeasured: bioavailability (%)

>>> measurement("O=C1c2c(O)c(=O)ccn2N([C@@H](c2ccc(F)c(F)c2)c2cccs2)[C@@H]2COCCN12")
71.6

---

Tested on: Influenza A virus
measurementDescription: Antiviral activity against influenza strain A/Aichi/ 2/1968 (H3N2) infected in MDCK cells assessed as reduction of virus-induced cytopathic effect measured after 2 days incubation
Type: functional, organism-based
experimentalContext: 48 h
# key: entry, value: EC50
quantityMeasured: EC50

>>> measurement("O=C1c2c(O)c(=O)ccn2N([C@@H](c2cccs2)c2cc(F)c(F)c(F)c2F)[C@@H]2COCCN12")
"7.78 nM"
>>> measurement("O=C1c2c(O)c(=O)ccn2N([C@@H](c2ccc(Br)c(Br)c2)c2cccs2)[C@@H]2COCCN12")
"6.9 nM"
>>> measurement("O=C1c2c(O)c(=O)ccn2N([C@H](c2cccs2)c2cc(F)c(F)c(F)c2F)[C@@H]2COCCN12")
"13.8 nM"
>>> measurement("O=C1c2c(O)c(=O)ccn2N([C@@H](c2ccc(F)c(F)c2)c2cc3ccccc3s2)[C@@H]2COCCN12")
"5.98 nM"

---

measurementDescription: Selectivity index, ratio of CC50 for dog MDCK cells to EC50 for antiviral activity against influenza strain A/Aichi/ 2/1968 (H3N2) infected in MDCK cells
Type: toxicity, cell-based
experimentalContext: read-out: Selectivity Index
# key: entry, value: selectivity ratio
quantityMeasured: selectivity ratio

>>> measurement("O=C1c2c(O)c(=O)ccn2N([C@@H](c2ccc(Cl)c(Cl)c2)c2cccs2)[C@@H]2COCCN12")
539
>>> measurement("O=C1c2c(O)c(=O)ccn2N([C@H](c2ccc(Br)c(Br)c2)c2cccs2)[C@@H]2COCCN12")
1410
>>> measurement("O=C1c2c(O)c(=O)ccn2N([C@@H](c2ccc(F)c(F)c2)c2ccc(Br)s2)[C@@H]2COCCN12")
623
>>> measurement("O=C1c2c(O)c(=O)ccn2N([C@H](c2cccc(F)c2)c2cccs2)[C@@H]2COCCN12")
1320
>>> measurement("O=C1c2c(O)c(=O)ccn2N([C@H](c2ccc(F)c(F)c2)c2cccs2)[C@@H]2COCCN12")
8200

---

# key: entry, value: selectivity ratio
measurementDescription: Selectivity index, ratio of CC50 for dog MDCK cells to EC50 for antiviral activity against influenza strain A/WSN/1933 (H1N1) infected in MDCK cells
Type: toxicity, cell-based
experimentalContext: read-out: Selectivity Index
quantityMeasured: selectivity ratio

>>> measurement("O=C1c2c(O)c(=O)ccn2N([C@@H](c2ccccc2)c2cccs2)[C@@H]2COCCN12")
"> 1260"
>>> measurement("O=C1c2c(O)c(=O)ccn2N([C@@H](c2ccc(Br)c(Br)c2)c2cccs2)[C@@H]2COCCN12")
"> 1400"
>>> measurement("O=C1c2c(O)c(=O)ccn2N([C@@H](c2cccc(F)c2)c2cccs2)[C@@H]2COCCN12")
"> 9020"

---

measurementDescription: Selectivity index, ratio of CC50 for dog MDCK cells to EC50 for antiviral activity against influenza strain A/Aichi/ 2/1968 (H3N2) infected in MDCK cells
Type: toxicity, cell-based
experimentalContext: read-out: Selectivity Index
# key: entry, value: selectivity ratio
quantityMeasured: selectivity ratio

>>> measurement("O=C1c2c(O)c(=O)ccn2N([C@H](c2ccc(F)c(F)c2)c2cc3ccccc3s2)[C@@H]2COCCN12")
"> 2460"
>>> measurement("O=C1c2c(O)c(=O)ccn2N([C@@H](c2ccc(F)c(F)c2)c2cc3ccccc3s2)[C@@H]2COCCN12")
"> 8360"
>>> measurement("O=C1c2c(O)c(=O)ccn2N([C@@H](c2cccc(F)c2)c2cccs2)[C@@H]2COCCN12")
"> 3290"
>>> measurement("O=C1c2c(O)c(=O)ccn2N([C@@H](c2cc(F)c(F)c(F)c2)c2cccs2)[C@@H]2COCCN12")
"> 9210"
>>> measurement("O=C1c2c(O)c(=O)ccn2N([C@@H](c2ccccc2)c2cccs2)[C@@H]2COCCN12")
"> 2300"
>>> measurement("O=C1c2c(O)c(=O)ccn2N([C@H](c2cccs2)c2cc(F)c(F)c(F)c2F)[C@@H]2COCCN12")
"> 3630"
>>> measurement("O=C1c2c(O)c(=O)ccn2N([C@@H](c2ccc(Br)c(Br)c2)c2cccs2)[C@@H]2COCCN12")
"> 7250"

Values were extracted from ChEMBL document CHEMBL6078703.
